Listed here are binders together with their documented IC50 (µg/mL), pseudovirus neutralization.
Target Under Test: HIV-1 Env of isolate 92WR026 (pseudovirus) (HIV-1)
Test Summary: cell-based or functional assay
A complete answer gives the number followed by the unit.

Recorded IC50 (µg/mL), pseudovirus neutralization, per entry:
Binder	Value Reported
PGT-123 (4858_P08) (antibody, V domains shown) VH: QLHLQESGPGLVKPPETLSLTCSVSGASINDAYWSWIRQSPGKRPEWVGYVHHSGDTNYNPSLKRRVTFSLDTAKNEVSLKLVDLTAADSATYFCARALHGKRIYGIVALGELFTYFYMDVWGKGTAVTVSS VL: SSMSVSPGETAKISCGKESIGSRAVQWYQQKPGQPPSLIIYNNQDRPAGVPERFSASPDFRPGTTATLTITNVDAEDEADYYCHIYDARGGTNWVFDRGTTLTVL	0.012 µg/mL
PGT-125 (5123_A06) (antibody, V domains shown) VH: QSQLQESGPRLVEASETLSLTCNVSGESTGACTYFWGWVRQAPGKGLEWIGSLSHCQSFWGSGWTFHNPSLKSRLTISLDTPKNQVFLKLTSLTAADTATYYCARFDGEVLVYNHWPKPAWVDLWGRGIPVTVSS VL: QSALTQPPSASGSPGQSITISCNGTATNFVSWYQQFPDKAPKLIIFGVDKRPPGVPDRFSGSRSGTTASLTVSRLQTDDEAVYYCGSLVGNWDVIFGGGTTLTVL	0.007 µg/mL
PGT-127 (5145_B14) (antibody, V domains shown) VH: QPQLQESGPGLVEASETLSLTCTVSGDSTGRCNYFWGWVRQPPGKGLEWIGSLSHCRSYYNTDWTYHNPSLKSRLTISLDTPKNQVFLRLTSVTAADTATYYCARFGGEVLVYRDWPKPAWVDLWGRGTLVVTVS VL: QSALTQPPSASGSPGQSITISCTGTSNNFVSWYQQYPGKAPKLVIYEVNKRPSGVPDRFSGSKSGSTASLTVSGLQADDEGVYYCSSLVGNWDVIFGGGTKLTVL	0.024 µg/mL

# evaluate next
Answer with the recorded IC50 (µg/mL), pseudovirus neutralization for the binder listed here: PGT-126 (5141_B17) (antibody, V domains shown) VH: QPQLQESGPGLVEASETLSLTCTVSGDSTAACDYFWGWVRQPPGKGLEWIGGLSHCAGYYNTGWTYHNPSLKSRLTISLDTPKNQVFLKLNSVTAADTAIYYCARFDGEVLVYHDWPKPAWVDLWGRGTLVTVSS VL: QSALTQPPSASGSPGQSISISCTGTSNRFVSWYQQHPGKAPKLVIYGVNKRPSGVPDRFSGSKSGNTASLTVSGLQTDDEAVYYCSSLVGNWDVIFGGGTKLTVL
0.008 µg/mL
